Cited source for all entries: patent US10214542B2

System: B16F10 cells
assay.text: Proliferation assay, crystal violet (Method 3)
Type: cell-based
condition.parameters: Mus musculus, B16-F10, 96 h; B16F10, 4 days; read-out: Inhibition of B16F10 cell proliferation IC50
recorded.metric: IC50 (nM)

C[S+]([O-])Cc1cc2nc(c1)OCCCCCc1cc(F)ccc1-c1cc(ncc1F)N2 (racemic)	1550
CC(C)(C)OC(=O)N=S(C)(=O)Cc1cc2nc(c1)Nc1cc(c(F)cn1)-c1ccc(F)cc1OCCCCCN2 (racemic)	85

A = CC(C)(C)OC(=O)N=S(C)(=O)Cc1cc2cc(c1)OCCCCNc1cc(F)ccc1-c1nc(ncc1F)N2 (racemic)
B = CC(C)(C)OC(=O)N=S(C)(=O)Cc1cc2cc(c1)OCCCCSc1cc(F)ccc1-c1nc(ncc1F)N2 (racemic)
C = CSCc1cc2nc(c1F)N(C)CCCCOc1cc(F)ccc1-c1cc(ncc1F)N2
D = CS(=N)(=O)Cc1cc2nc(c1)Nc1cc(c(F)cn1)-c1ccc(F)cc1OCCCCCN2 (racemic)
Q. Hey, quick one: sort these by IC50, largest value first please. Would you mind listing the labels in the order requested?
A. C, B, A, D
(C: 991 nM, B: 543 nM, A: 83 nM, D: 26 nM)
